Documented area under concentration-response curve across a set of molecules
Test system: CU-ACC2
Test: area under concentration-response curve (viability) (AUC (a.u.)); higher = less active
Conditions: 48 h
readout-kind: area under concentration-response curve

- compound-structure-string: "COc1cccc2c(NCc3ccccc3)nc(-n3c(N)nc4ccccc43)nc12"
  readout-kind: "area under concentration-response curve"
  value-reported: 450
- compound-structure-string: "Cc1cc(O[C@@H](CCC(F)(F)F)c2ccc(C(=O)NCCC(=O)O)cc2)cc(C)c1-c1ccc(C(C)(C)C)cc1"
  readout-kind: "area under concentration-response curve"
  value-reported: 409
- compound-structure-string: "CN(CCOc1ccc(N[S+](C)(=O)[O-])cc1)CCc1ccc(N[S+](C)(=O)[O-])cc1"
  readout-kind: "area under concentration-response curve"
  value-reported: 637
- compound-structure-string: "FC(F)(F)c1ccc(Nc2nc(-c3c(C(F)(F)F)nc4ccccn34)cs2)cc1"
  readout-kind: "area under concentration-response curve"
  value-reported: 529
- compound-structure-string: "O=C1S/C(=C\\c2ccc(OCc3cccc(B(O)O)c3)cc2)C(=O)N1Cc1ccc(F)cc1"
  readout-kind: "area under concentration-response curve"
  value-reported: 488
- compound-structure-string: "C[S+](=O)([O-])c1cccc(CNc2nc(Nc3ccc4c(c3)CCC(=O)N4)ncc2C(F)(F)F)c1"
  readout-kind: "area under concentration-response curve"
  value-reported: 467
- compound-structure-string: "CN1CCN(c2ccc3nc(-c4cc(C(C)(C)C)c(OCCCC(=O)NCCCN=[N+]=[N-])c(C(C)(C)C)c4)[nH]c3c2)CC1"
  readout-kind: "area under concentration-response curve"
  value-reported: 566
- compound-structure-string: "NCCCCNCCCN"
  readout-kind: "area under concentration-response curve"
  value-reported: 422
- compound-structure-string: "O=C1Nc2ccc(Cl)cc2[C@@](C#CC2CC2)(C(F)(F)F)O1"
  readout-kind: "area under concentration-response curve"
  value-reported: 589
